test: folding stability dG unfold (combined trypsin and chymotrypsin); higher = more stable
observed property: folding stability dG unfold (kcal/mol)
The answer is to be given in kcal/mol; state only the numeric part.

INSERT INTO measurements (chain_sequence, observed_property, scale_unit, assay_result) VALUES
  ('SSSSEVKVERYPDSYLVTITIREGDKEVGTLSYPLNGSLTVEEVLEEVQKRYPDLPVSFSTSVPVPPPAPSA [r9_364_JUSTAS]', 'folding stability dG unfold', 'kcal/mol', 3.8),
  ('SAGGSAGGSAGGMSVTVSREKLPDGSYLVTVTTEVGGGPVTTPYRVPPSLSSAEEVVEKLSAGGSAGGSAGG [r7_75_JUSTAS]', 'folding stability dG unfold', 'kcal/mol', -0.23);

Q) Query folding stability dG unfold for SAGGSAGGSAGGKKIKIKINSPGNAEEVKKLLEPFGLEVDSIKENKNNPNLIIVEVNVESAGGSAGGSAGGS [r10_104_TrMRF]
A) 0.242

Q) Query folding stability dG unfold for SMKEGIEAAIDELKEALEKGEGEVRVVLRFEGFVLEITIKPKGYKIEDIEIEPLPDDIPFIREREEVPPESA [r9_308_TrMRF]
A) 1.52

Q) Query folding stability dG unfold for SAGGSNFKPLEAEIYRNPDGKDVVQIMITFPDPNGKPFTVNIWIYPDGKIKISVYYNGKKEEIEIPSAGGSA [r2_182_TrROS]
A) 2.96

Q) Query folding stability dG unfold for SAGGSAGGSAMPTYDNPDSLSIEEVKEKVAKEAKEKYPGKSNITVPVKFSDGTEYTVTIKIESAGGSAGGSA [r18_449_JUSTAS]
A) -0.405

Q) Query folding stability dG unfold for SMKFTITLSNPVDGTTETIPLDVPLEELVKIIKEAHEKGGTVTITGLPEELAKEIAEKSGLDVSINPAPGSA [r9_1207_JUSTAS]
A) 2.85

Q) Query folding stability dG unfold for SAGGSAGGSAGNIILPFEIESIDIEEETAIDPETGEPVKVKKILIRLKGTGKIIEISFTEKSAGGSAGGSAG [r3_424_TrMRF]
A) 2.88

Q) Query folding stability dG unfold for SAGMPIRVRLLVERPALDPETGEPVVERREVVLTLHPEEIASGIPVEELAKELEKAFPGAKVTVLEVSSAGG [r19_110_TrMRF]
A) 3.81

Q) Query folding stability dG unfold for SAGGMPPDARKLIREIAQDFGMSDIEPDEEGHVRINMPNPMMIQVDVENGEPKIKIYNNNKWREIPISAGGS [r16_296_TrROS]
A) 0.437

Q) Query folding stability dG unfold for SAGGSAGGKPKVVELELTTEDGSKVRVVFTEDSVYIYNEETGLLVKYNLKTGKFELKEVYPLEESAGGSAGG [r6_462_TrROS_Hall]
A) 2.92

Q) Query folding stability dG unfold for SAGGPMPPGQKRTVTIDLEYNPENGGYRVRAYSPGGKPIEEFPFPRDNLEEFAEEFANKGVDYVEIEPSAGG [r13_765_TrROS]
A) 0.325

Q) Query folding stability dG unfold for SAGPSLEVEVERLPGPYVRITARYSRDVPVEVLVEELRAAAPVEVRVEEDPERDFVTVVAVLPLAPDAGSAG [r5_742_TrMRF]
A) 1.46

Q) Query folding stability dG unfold for SAGGSAGGSAGGGRMLLTETETIFSPSGGESVVTRLVTVFRPPPPVFLPDPEGRWSELVSAGGSAGGSAGGS [r10_330_JUSTAS]
A) 0.856

Q) Query folding stability dG unfold for SKFDPDDPGQPVRFTVMIPVPEDAMKNGDLEEVRDKVEEAADMFRPHGMEVKDIEVPPEQGWVMVKFEMPSA [r9_75_TrROS]
A) -0.0605

Q) Query folding stability dG unfold for SKIRIEWPDETQEIKIPKDASVAIDPGNGHIAIHGPDGEALGFPLGPNWKIEPDDDEIEITIPPPKPEDPSA [r9_653_TrROS]
A) 0.158

Q) Query folding stability dG unfold for SAGGMNISIEPIGRDNDRWYYMITFPGDANEIKDFIEEFLPPGLPIKVKVLEVDPENGHVTVMIEIPRSAGG [r13_491_TrROS]
A) 3.24
